# Experiment Description: Approximate solubility of starting material at RT
# Format: physicochemical
# Condition Notes: organic solvent or mixture, ACN, RT
Measurement Label: solubility

Which solubility value is on record for C[C@H](O)C(=O)C1=Nc2c(nc(N)[nH]c2=O)NC1 [Form A, sepiapterin] ? < 1700 µg/mL

----------
# Experiment Description: Approximate solubility of starting material at RT
# Format: physicochemical
# Condition Notes: organic solvent or mixture, EtOAc, RT
Measurement Label: solubility

Which solubility value is on record for C[C@H](O)C(=O)C1=Nc2c(nc(N)[nH]c2=O)NC1 [Form A, sepiapterin] ? < 2500 µg/mL

----------
# Experiment Description: Approximate solubility of starting material at RT
# Type: physicochemical
# Condition Notes: organic solvent or mixture, CHCl3, RT
Measurement Label: solubility

Which solubility value is on record for C[C@H](O)C(=O)C1=Nc2c(nc(N)[nH]c2=O)NC1 [Form A, sepiapterin] ? < 1600 µg/mL
